system: NCI/ADR-RES ovarian; assay: NCI-60 one-dose screen, 48 h; conditions: 10 µM unless noted
This is part of a sample that, as a whole, favours compounds with a hit. Of some 83,000 tested, about 20% had one in any assay. Calls of active or inactive are those of the source. Rule for the calls: active = growth percent below 10; inactive = the rest.
Classes used: true (1) = active, false (0) = inactive

- COc1cc(OC)cc(C2C(C#N)=C(N)Oc3c2ccc2ccc(O)cc32)c1 (centres undefined): true (1)
- CCn1cc(C(=O)NN=C2CCCCCC2)c(=O)c2ccc(C)nc21: false (0)
- N#Cc1c(Nc2ccc(F)cc2)n[nH]c1-c1cccs1: false (0)
- CN1CCN(c2ccc(NC(=O)c3cncnc3Nc3ccc4c(ccn4Cc4cccc(F)c4)c3)cc2)CC1: false (0)
- C=C(C)[C@@H]1CC[C@]2(CO)CC[C@]3(C)[C@H](CC[C@@H]4[C@@]5(C)CCC(NCCc6ccc(O)cc6)C(C)(C)[C@@H]5CC[C@]43C)[C@@H]12 (some centres undefined): true (1)
- O=C(CCC(=O)c1nc2ncccc2[nH]1)NN1C(=O)CSC1c1ccc(Cl)cc1 (centres undefined): false (0)
- Cc1cc(F)ccc1S(=O)(=O)Nc1cc(-c2c(O)ccc3ccccc23)c(O)c2ccccc12: false (0)
- COc1ccc(OC)c(-c2cn3nc(-c4c[nH]c5ccc(Br)cc45)sc3n2)c1: false (0)
- CCN(CC)c1ccc(/C=N\NC(=O)c2cccc(Nc3ccnc(C(F)(F)F)c3)c2)c(O)c1: false (0)

----------
growth reference
tested on: SF-268 CNS; test: NCI-60 one-dose screen, 48 h (100 = growth as untreated, 0 = no growth, -100 = all killed); details: 10 µM unless noted
The panel holds about 83,000 compounds, 20% with a hit somewhere; the sample as a whole holds those more often.
value_kind: growth (%)

* CCOC(=O)C1=C(c2ccccc2)N=c2s/c(=C/c3ccc(Br)cc3)c(=O)n2C1c1ccc(O)cc1 (stereo not drawn) | 83.8
* CN(C)c1ccc(/C=C/C(=O)c2ccc(Nc3nc(Nc4ccc(F)cc4)nc(Nc4ccc(Cl)cc4)n3)cc2)cc1 | 84.1
* COc1cc(/C=C\c2cc(/C=C\c3ccc(O)c(OC)c3)n(C(=O)CNc3ccc(Cl)cc3)n2)ccc1O | 25.5
* Nc1c(C(=O)O)cc(Cl)cc1[N+](=O)[O-] | 98
* COC(=O)/C=C1/SC(=Nc2cccc(Cl)c2)N(CCc2c[nH]c3ccc(O)cc23)C1=O | 25.3
* COc1ccc(-c2cn(-c3ccc(Cl)cc3)c(SCC(=O)c3ccc([N+](=O)[O-])cc3)n2)cc1 | 73.1
* CC[C@]12C=CCN3CC[C@@]4(c5ccc(OC)cc5N(C)[C@H]4[C@@](O)(C(=O)OC)[C@@H]1OC(=O)CCCN1CCOCC1)[C@@H]32 | 98.6
* COC(=O)C1=C(C)NC(C)=C(C(=O)OCC(C)C)C1c1ccccc1[N+](=O)[O-] (stereo not drawn) | 66.6
* N=C(N)SCc1cccc2c(CSC(=N)N)cccc12 | 97.2
* CCCCCCCCn1ccc2cc(NC(=O)Cn3cc(CN4CCC(C)CC4)nn3)ccc21 | 32.8
* COC(=O)c1c2c(c(C)[n+]([O-])c1C)C(=O)C=CC2=O | -0.514
* Cc1ccccc1CNc1c2ccccc2nc2ccccc12 | 42.9
* Oc1c(CN2CCCC2)cc(COCc2ccccc2)c2cccnc12 | 23.2
* COc1cc(C#Cc2ccc(=O)oc2C#Cc2ccccc2)cc(OC)c1OC | 43.5
* O=c1ccc2nc(C(F)(F)F)nn(-c3ccccc3)c-2c1 | 77.4
* COc1cccc(C(=O)OCC(O)C(=O)NC23CC4CC(CC(C4)C2)C3)c1 (stereo not drawn) | 102
* N#Cc1c(-c2ccccc2)nc2c(c(-c3ccccc3)nn2-c2ccccc2)c1-c1ccc(N2CCOCC2)cc1 | 104
* Cc1[nH]c(/C=C/C(=O)c2ccc(C(F)(F)F)c(F)c2)c(C)c1C(=O)NCC(C)C | 95.8
